Attribution: patent US20120101100A1

study system: S. aureus GyrB ATPase (Staphylococcus aureus)
assay notes: S. aureus (SAU) GyrB ATPase inhibition, malachite green phosphate detection (E. coli GyrA + S. aureus GyrB)
Format: biochemical
experimental context: compound concentration of 1.0 μM unless otherwise noted; average value where assay was carried out more than once; read-out: S. aureus (SAU) GyrB ATPase % Inhibition
observable: inhibition at 1 µM
Write down the value, and be sure its unit follows.

CCNC(=O)Nc1cc(-c2nc(C(F)(F)F)cs2)c(-c2cncc(-c3nnc(COCCOC)o3)c2)cn1
68%
CCNC(=O)Nc1cc(-c2nc(C(F)(F)F)cs2)c(-c2cncc(-c3nnc(NCCCN(C)C)o3)c2)cn1
95%
CCNC(=O)Nc1cc(-c2nc(C(F)(F)F)cs2)c(-c2cnc(-c3n[nH]c(=O)o3)cn2)cn1
100%
CCNC(=O)Nc1cc(-c2nc(-c3ccccc3)cs2)c(-c2cncc(-c3nnc(C)o3)c2)cn1
98%
CCNC(=O)Nc1cc(-c2nc(C(F)(F)F)cs2)c(-c2cncc(-c3nn(CCOC)c(=O)o3)c2)cn1
98%
CCNC(=O)Nc1cc(-c2nc(-c3ccccn3)cs2)c(-c2ccnc(-c3n[nH]c(=O)o3)c2)cn1
102%
CCNC(=O)Nc1cc(-c2nc(C(F)(F)F)c(C)s2)c(-c2cncc(-c3nnc(C)o3)c2)cn1
104%
CCNC(=O)Nc1cc(-c2nc(C(F)(F)F)cs2)c(-c2cccnc2)cn1
86%

Recorded inhibition at 1 µM (compound CCNC(=O)Nc1cc(-c2nc(C(F)(F)F)cs2)c(-c2cncc(-c3nnc(C4(O)CC4)o3)c2)cn1 ): 98%

Form: compound = CCNC(=O)Nc1cc(-n2cc(C(F)(F)F)cn2)c(-c2cncc(-c3n[nH]c(=O)o3)c2)cn1 ; inhibition at 1 µM = 97%

Briefly, inhibition at 1 µM measured for CCNC(=O)Nc1cc(-c2nc(C(F)(F)F)cs2)c(-c2cncc(-c3nn(C(=O)N4CCCCC4)c(=O)o3)c2)cn1 : 86%

Looking up CCNC(=O)Nc1cc(-c2nc(-c3cccc(OC)n3)cs2)c(-c2nc(-c3ncnn3C)c(-c3n[nH]c(=O)o3)s2)cn1 , I found its inhibition at 1 µM recorded as 99%

----------
The following compounds are listed with their measured inhibition at 1 µM values.
study system: S. aureus GyrB ATPase (Staphylococcus aureus, UniProt P0A0K8)
Sequence (P0A0K8 whole entry): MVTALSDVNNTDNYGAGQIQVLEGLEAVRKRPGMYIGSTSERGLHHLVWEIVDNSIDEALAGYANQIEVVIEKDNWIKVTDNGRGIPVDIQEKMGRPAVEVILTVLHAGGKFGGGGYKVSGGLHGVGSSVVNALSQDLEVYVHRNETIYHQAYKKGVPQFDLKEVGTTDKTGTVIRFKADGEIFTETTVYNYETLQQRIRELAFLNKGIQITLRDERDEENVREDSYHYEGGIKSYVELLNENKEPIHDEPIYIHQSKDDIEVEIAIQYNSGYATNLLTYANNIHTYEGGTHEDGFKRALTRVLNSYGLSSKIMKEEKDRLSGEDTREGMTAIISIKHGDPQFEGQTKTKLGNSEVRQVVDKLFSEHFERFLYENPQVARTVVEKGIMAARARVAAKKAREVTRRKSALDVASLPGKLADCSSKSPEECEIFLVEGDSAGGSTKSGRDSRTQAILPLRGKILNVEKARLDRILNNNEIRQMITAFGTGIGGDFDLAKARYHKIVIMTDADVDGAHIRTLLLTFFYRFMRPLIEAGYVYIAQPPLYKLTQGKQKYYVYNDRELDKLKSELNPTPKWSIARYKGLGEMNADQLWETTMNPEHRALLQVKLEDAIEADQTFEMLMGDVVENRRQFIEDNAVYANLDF
Sequence (P0AES4 whole entry, further chain): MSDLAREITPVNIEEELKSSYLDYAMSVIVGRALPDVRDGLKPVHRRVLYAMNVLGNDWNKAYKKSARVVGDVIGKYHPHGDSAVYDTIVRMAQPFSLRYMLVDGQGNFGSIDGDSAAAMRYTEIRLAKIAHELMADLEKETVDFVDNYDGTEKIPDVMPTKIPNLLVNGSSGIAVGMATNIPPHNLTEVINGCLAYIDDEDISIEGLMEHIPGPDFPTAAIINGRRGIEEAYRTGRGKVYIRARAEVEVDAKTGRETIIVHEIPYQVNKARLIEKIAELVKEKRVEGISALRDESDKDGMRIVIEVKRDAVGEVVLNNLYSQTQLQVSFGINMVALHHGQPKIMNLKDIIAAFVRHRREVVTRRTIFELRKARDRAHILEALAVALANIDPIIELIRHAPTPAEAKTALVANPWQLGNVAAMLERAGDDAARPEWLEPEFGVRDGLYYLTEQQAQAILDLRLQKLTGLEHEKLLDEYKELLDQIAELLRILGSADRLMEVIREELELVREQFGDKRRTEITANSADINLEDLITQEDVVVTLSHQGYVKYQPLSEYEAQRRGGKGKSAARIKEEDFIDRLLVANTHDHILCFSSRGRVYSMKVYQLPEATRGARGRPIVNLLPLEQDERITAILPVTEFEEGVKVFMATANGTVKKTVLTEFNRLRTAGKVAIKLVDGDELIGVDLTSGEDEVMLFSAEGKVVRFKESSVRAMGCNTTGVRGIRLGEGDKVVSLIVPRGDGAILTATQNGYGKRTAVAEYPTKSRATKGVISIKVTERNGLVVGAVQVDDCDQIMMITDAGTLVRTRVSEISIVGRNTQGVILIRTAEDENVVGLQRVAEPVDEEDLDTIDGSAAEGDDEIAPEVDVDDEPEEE
assay notes: S. aureus (SAU) GyrB ATPase inhibition, malachite green phosphate detection (E. coli GyrA + S. aureus GyrB)
Format: biochemical
experimental context: compound concentration of 1.0 μM unless otherwise noted; average value where assay was carried out more than once; read-out: S. aureus (SAU) GyrB ATPase % Inhibition

CCNC(=O)Nc1cc(-c2nc(C(F)(F)F)cs2)c(-c2cncc(-c3nnc([C@H]4COCCN4)o3)c2)cn1
95%
CCNC(=O)Nc1cc(-c2nc(C(F)(F)F)cs2)c(-c2cncc(-c3nnco3)c2)cn1
90%
CCNC(=O)Nc1cc(N2C[C@@H](C)O[C@@H](C)C2)c(-c2cncc(-c3n[nH]c(=O)o3)c2)cn1
96%

We now examine a further compound.
Looking up O=C(Nc1cc(-c2nc(C(F)(F)F)cs2)c(-c2cncc(-c3n[nH]c(=O)o3)c2)cn1)NC1CC1 , I see its inhibition at 1 µM listed as 103%
